Target: Toxin B (Clostridioides difficile) (UniProt P18177)
Sequence (P18177 whole entry, looked up): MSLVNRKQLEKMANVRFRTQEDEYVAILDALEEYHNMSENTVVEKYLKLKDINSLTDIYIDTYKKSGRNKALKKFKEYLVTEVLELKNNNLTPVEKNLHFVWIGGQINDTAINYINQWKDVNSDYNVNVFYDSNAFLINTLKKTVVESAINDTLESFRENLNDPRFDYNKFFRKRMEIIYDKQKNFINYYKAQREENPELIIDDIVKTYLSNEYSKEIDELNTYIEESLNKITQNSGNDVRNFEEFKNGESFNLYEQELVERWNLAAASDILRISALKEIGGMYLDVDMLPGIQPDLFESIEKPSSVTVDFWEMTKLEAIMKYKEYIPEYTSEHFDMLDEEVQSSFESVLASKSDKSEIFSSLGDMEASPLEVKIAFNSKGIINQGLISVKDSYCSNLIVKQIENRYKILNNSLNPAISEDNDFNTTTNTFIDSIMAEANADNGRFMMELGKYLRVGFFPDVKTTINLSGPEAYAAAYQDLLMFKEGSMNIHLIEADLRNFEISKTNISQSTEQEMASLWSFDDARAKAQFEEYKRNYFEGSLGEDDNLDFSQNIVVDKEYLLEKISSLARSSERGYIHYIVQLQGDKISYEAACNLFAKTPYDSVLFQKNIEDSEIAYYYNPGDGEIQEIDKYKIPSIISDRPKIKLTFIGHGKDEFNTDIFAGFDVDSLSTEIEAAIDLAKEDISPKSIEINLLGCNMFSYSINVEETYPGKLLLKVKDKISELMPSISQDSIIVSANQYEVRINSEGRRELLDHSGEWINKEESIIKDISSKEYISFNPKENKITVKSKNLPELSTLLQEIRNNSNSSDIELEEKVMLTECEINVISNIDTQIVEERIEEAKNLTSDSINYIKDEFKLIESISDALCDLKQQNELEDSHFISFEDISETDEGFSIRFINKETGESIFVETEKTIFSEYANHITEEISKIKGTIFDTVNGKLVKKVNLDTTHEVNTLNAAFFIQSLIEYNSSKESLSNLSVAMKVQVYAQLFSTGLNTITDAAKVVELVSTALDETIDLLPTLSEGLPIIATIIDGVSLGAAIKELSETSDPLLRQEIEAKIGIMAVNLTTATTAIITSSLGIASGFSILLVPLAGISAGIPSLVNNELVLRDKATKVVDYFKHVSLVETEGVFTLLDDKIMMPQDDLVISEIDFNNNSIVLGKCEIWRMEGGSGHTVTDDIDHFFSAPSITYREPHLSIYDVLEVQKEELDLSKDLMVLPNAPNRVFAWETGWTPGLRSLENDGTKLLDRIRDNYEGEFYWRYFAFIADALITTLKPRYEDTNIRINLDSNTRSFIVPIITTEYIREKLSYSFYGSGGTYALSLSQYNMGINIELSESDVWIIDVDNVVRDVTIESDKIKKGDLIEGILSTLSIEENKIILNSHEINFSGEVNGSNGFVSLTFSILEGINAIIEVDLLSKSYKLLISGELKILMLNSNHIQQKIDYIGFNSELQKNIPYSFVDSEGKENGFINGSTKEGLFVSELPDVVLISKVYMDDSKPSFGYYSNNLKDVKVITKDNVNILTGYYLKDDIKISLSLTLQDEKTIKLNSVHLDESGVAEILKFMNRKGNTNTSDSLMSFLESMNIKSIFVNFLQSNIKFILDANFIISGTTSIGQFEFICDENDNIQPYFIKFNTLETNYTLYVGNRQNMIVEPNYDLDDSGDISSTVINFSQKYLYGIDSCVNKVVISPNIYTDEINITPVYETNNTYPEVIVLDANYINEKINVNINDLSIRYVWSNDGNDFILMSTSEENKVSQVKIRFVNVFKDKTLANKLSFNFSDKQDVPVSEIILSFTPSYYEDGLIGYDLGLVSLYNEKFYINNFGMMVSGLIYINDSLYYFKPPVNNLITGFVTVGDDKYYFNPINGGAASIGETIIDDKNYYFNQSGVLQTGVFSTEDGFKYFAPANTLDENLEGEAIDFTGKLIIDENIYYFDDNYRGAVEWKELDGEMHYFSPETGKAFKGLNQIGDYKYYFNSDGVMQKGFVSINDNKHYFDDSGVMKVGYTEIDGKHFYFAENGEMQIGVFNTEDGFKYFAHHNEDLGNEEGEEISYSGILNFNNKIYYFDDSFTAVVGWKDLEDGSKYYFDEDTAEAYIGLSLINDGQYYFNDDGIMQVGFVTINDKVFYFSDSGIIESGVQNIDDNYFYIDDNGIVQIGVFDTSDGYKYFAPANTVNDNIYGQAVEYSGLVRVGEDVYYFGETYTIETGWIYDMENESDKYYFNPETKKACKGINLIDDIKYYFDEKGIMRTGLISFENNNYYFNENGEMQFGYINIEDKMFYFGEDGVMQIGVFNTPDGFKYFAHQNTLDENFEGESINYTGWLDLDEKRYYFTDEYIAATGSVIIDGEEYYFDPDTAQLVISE
Assay: TcdB glycohydrolase inhibitors, primary screen, biochemical, single point, plate reader (AID 652162)
Conditions: TcdB glycohydrolase enzymatic assay, at 9.99 µM, hits give high values
Hit rate of the full screen: of about 350,000 compounds, about 840 (0.24%) were called active. The sample holds actives, similar compounds and a random draw of the others, so the mix is not that of the screen.
Reported values of inhibition for individual entries

molecule | quantity.unit | inhibition
CC(C)NC(=O)N1C[C@@H]2[C@H](c3ccccc31)[C@@H](CO)N2Cc1ccc(Cl)cc1 | % | -0.718
Cc1cccn2c(CNCC(C)Oc3cccnc3)c(C(=O)N3CCOCC3)nc12 (centres undefined) | % | -0.924
O=C(Nc1cccc(Cl)c1)N[C@@H]1CC[C@@H](CCNC(=O)C2CCOCC2)O[C@@H]1CO | % | -0.908
COc1ccccc1-n1c(SCC(=O)O)nc2sc3c(c2c1=O)CCC3 | % | -0.511
